B1: ANKRD40 (parent)
chain: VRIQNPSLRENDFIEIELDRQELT

- Variants of: B1
- Assay comment: protein stability index of a GFP-peptide fusion (GPS, HEK-293T) (PSI 1-6); higher = more stable;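 note: lentivirally expressed fusions sorted by FACS into six bins by GFP to DsRed ratio, PSI derived from sequencing read proportions per bin multiplied by bin number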
- Applied conditions: c terminus: a fixed tail appended
Readout name: protein stability index

Mutation code	Assay result
S7Q	2.82
S7N	2.79
N11D	2.08
Q4S	2.29
V1T	3.96
E22Y	2.37

For each of the items listed, what is its protein stability index?
1. N11T
2. E15A
3. F13M
4. L23Q

a:
1. 2.47
2. 2.38
3. 3.21
4. 3.44

For each of the items listed, what is its protein stability index?
1. R9V
2. Q4R

a:
2.03
2.12

For each of the items listed, what is its protein stability index?
1. D12I
2. N11M
3. S7Y
4. D12S

a:
1. 2.08
2. 1.99
3. 2.16
4. 1.83

Data credit: the supplement of paper PMC10567573
